# Test system: SNB-19 CNS
# measurement.protocol: NCI-60 one-dose screen, 48 h (100 = growth as untreated, 0 = no growth, -100 = all killed)
# condition.parameters: 10 µM unless noted
The panel holds about 83,000 compounds, 20% with a hit somewhere; the sample as a whole holds those more often.
Rule: growth below 90% gives MET. Equal to or above 90% gives NOT MET.

smiles.text	study.target	assigned.label
COc1ccc(C(=O)N2NC(=O)/C(=C/c3ccc(F)cc3)N=C2c2ccccc2)cc1	SNB-19 CNS	MET

Task: Would you kindly verify if growth of `Fc1ccc(Nc2ncnc3ccc(-c4cnc5[nH]ccc5c4)cc23)cc1Cl` is strictly less than 90%?
Result: MET

Task: Quick check: does `Cc1c(C(N)=O)sc2c1c(=O)n(Cc1ccccc1)c1nnc(Nc3ccccc3)n21` have growth under 90%?
Result: NOT MET

Task: Given the entry `O=C(NS(=O)(=O)c1ccccc1)n1cc(-c2ccncc2)c(-c2ccc(Cl)c(O)c2)n1` , would its reported growth be below 90%?
Result: NOT MET

Task: Threshold test, growth < 90%: `FC(F)(F)c1ccccc1-c1cn2c(ccc3ccccc32)n1`
Result: MET

Task: Threshold test, growth < 90%: `c1ccc(-c2nnc(-c3ccccn3)s2)nc1`
Result: NOT MET

Task: Is the reported growth for `O=[N+]([O-])c1cc(S(=O)(=O)Oc2ccccc2)ccc1Cl` strictly below 90%?
Result: MET

Task: Determine whether this compound shows growth lower than 90% (ties excluded): `CCOC(=O)c1c(NS(=O)(=O)c2ccc(C)cc2)sc2c1CCC1(C2)OCCO1`
Result: NOT MET
